Source of measurements: a melting point compilation (Tetko et al.; mined from patent text by program, amines drawn as free bases though some values may be those of a salt)

Parameter melting point: see the listing below.

- Compound: "Cc1nccc(N2CCN(C(=O)c3ccccc3)CC2)n1"
  melting point: "147 °C"
- Compound: "O=c1nc(N2CCCc3c(Br)cccc32)sc2ncccc12"
  melting point: "173 to 174 °C"
- Compound: "CCCCOCCOc1ccc(-c2ccc3c(c2)C=C(C(=O)Nc2ccc(SCc4ncon4)cc2)CCN3CC(C)C)cc1"
  melting point: "112 to 115 °C"
- Compound: "COc1ccc(C(=O)C=Cc2ccccc2F)cc1"
  melting point: "92 to 93 °C"
- Compound: "COC(=O)C1=C(C)NC(=O)N(C(=O)OC)C1c1cccc([N+](=O)[O-])c1 (stereo not given)"
  melting point: "152 to 155 °C"
- Compound: "COC1(c2ccc(N(C)C)cc2)OC(=O)c2ccccc21 (stereo not given)"
  melting point: "112 to 114 °C"
- Compound: "COc1ccc(-n2nc(CCC(=O)N(C)O)cc2-c2ccc(F)cc2)cc1"
  melting point: "151 to 154 °C"
- Compound: "CCCCN1Cc2c([nH]c3ccccc23)C1=O"
  melting point: "215 to 218 °C"
- Compound: "c1ccc2[nH]c(CCC(CCCc3[nH]c4ccccc4c3CCN3CCCCC3)CCN3CCCCC3)cc2c1 (stereo not given)"
  melting point: "79 to 83 °C"
- Compound: "Cc1cccc(COc2cccc(OCc3coc(C4CCCCC4)n3)c2)c1C(=O)O"
  melting point: "158 to 159 °C"
- Compound: "Cc1cn2nc(S(=O)(=O)Cl)nc2nc1C"
  melting point: "116 to 120 °C"
- Compound: "CCc1nn2c(O)cc(O)nc2c1S(=O)(=O)c1ccccc1"
  melting point: "> 230 °C"
- Compound: "CC(=O)OCC1CCn2c(c(C3=C(c4c[nH]c5ccccc45)C(=O)NC3=O)c3ccccc32)C1 (stereo not given)"
  melting point: "264 to 265 °C"
- Compound: "Cc1c(C)n(CCc2ccccc2)c(C)c(C(=O)Nc2ccccc2)c1=O"
  melting point: "191 to 193 °C"
- Compound: "CC(=O)NC[C@H]1CN(c2ccc(N3CCC(F)(CI)CC3)c(F)c2)C(=O)O1"
  melting point: "166 to 168 °C"
- Compound: "ClCc1cc2ccccc2c(-c2ccccc2)c1CCl"
  melting point: "93 °C"
- Compound: "CCC(CC)O[C@@H]1C=C(C(=O)O)C[C@H](CC(O)CO)[C@H]1NC(C)=O (stereo not given in full)"
  melting point: "189 to 190 °C"
- Compound: "CCc1ncnc(O)c1[N+](=O)[O-]"
  melting point: "181 to 183 °C"
- Compound: "Cc1ccc(-c2c(CNC(=O)OC(C)(C)C)c(CC(C)C)nc3ccc(-c4nc(C(=O)OC(C)C)cs4)cc23)cc1"
  melting point: "190 to 191 °C"
- Compound: "CNC(=O)C(=NOCF)c1ccccc1OC1CCCCO1 (stereo not given)"
  melting point: "81 °C"

----------
Let's look at some molecules and their measured melting point.

- Molecule: "CCOC(=O)C1=CCCC[C@H]1S(=O)(=O)Nc1ccc(F)cc1Cl"
  melting point: "47 to 49 °C"
- Molecule: "CS(=O)(=O)c1ccc(-n2nc(C(F)(F)F)cc2-c2nc3cccc(F)c3s2)cc1"
  melting point: "186 to 188 °C"
- Molecule: "COc1ccc(/C=C/c2c(Cl)cncc2Cl)c2cc(-c3ccccn3)oc12"
  melting point: "157 to 158 °C"
- Molecule: "C=C[C@H]1CN(c2c(F)cc3c(=O)c(C(=O)O)cn4c3c2OC[C@@H]4C)C[C@H]1N"
  melting point: "238 to 240 °C"
- Molecule: "NS(=O)(=O)c1ccc(-n2nc(CCCNC(=O)Nc3ccc(OC(F)(F)F)cc3)cc2-c2ccccc2)cc1"
  melting point: "206 to 207 °C"
- Molecule: "O=[N+]([O-])c1ccc(Oc2ccc(C(c3ccc(Oc4ccc([N+](=O)[O-])cc4)cc3)(C(F)(F)F)C(F)(F)F)cc2)cc1"
  melting point: "150 to 152 °C"
- Molecule: "CCCCCc1c(C(C)C)nc(C(C)C)c(CO)c1-c1ccc(C)cc1"
  melting point: "92 to 94 °C"
- Molecule: "COc1cc2c(cc1OC)CCC(N(Cc1ccccc1)C(=O)c1ccc(C)cc1)=C2"
  melting point: "183 to 185 °C"
- Molecule: "O=C(O)c1ccc(CCCC2SCC(=O)N2CCC2(O)CCCCC2)s1 (centres undefined)"
  melting point: "122 to 123 °C"

----------
- Molecule: "C[Si](C)(C)NS(C)(=O)=O"
  melting point: "69 to 74.5 °C"
- Molecule: "O=C1N(CC2CCCO2)c2ccccc2C12COc1c[nH]c(=O)cc12 (stereo unspecified)"
  melting point: "> 250 °C"
- Molecule: "CCOc1ccc(-c2nc(-c3cccc(C(O)CO)n3)cs2)cc1OCC (stereo unspecified)"
  melting point: "112 °C"
- Molecule: "CC(=O)c1ccc2c(c1)CCCS2"
  melting point: "49.5 to 50.5 °C"
- Molecule: "COc1cc2cc(OCCCN3CCCCC3)ccc2c2ccc(OCCCN3CCCCC3)cc12"
  melting point: "118 to 120 °C"
- Molecule: "CC(=O)Nc1nc(CCc2ccc(CC(=O)NC(=N)N)s2)cs1"
  melting point: "188 to 190 °C"

----------
melting point values for the compounds below.

- Compound: "CCCOc1cccc(CO)c1I"
  melting point: "75 to 75.5 °C"
- Compound: "CC(=O)C(=CNc1ccc(C2=NNC(=O)CC2)cc1)C(C)=O"
  melting point: "218 to 222 °C"
- Compound: "COC(=O)Cc1cc2c(s1)NC(=S)C(C)N=C2c1ccccc1Cl (configuration not stated)"
  melting point: "196 to 197 °C"
- Compound: "CCc1ccc(/C=C/c2nc(COc3ccc(CCCCn4ccnc4CCO)cc3)co2)cc1"
  melting point: "94 to 95 °C"
- Compound: "CCCCn1c(COCC)nc2c(N)nc3ccc(Br)cc3c21"
  melting point: "182 to 183 °C"
- Compound: "CC1CN(CC(C)C(O)c2ccc(C(C)(C)C)cc2)CC(C)O1 (configuration not stated)"
  melting point: "49 to 50 °C"
- Compound: "NC(=S)N1CCN(C=O)CC1"
  melting point: "118 °C"
- Compound: "CC(C)c1nc(-c2cccs2)cc(-c2ccc(F)cc2)c1CO"
  melting point: "151 to 153 °C"
- Compound: "CCOC(=O)COc1cccc2c1CCCC2=O"
  melting point: "58 to 60 °C"
- Compound: "O=c1[nH]c2cc(Cl)cc(Cl)c2c(=O)n1Cc1cccc([N+](=O)[O-])c1"
  melting point: "314 to 317 °C"
- Compound: "COc1cc2c(cc1OC)CCN=C2"
  melting point: "185 to 187 °C"
- Compound: "O=c1ccc(S(=O)(=O)c2oc3ccccc3c2-c2ccccc2)n[nH]1"
  melting point: "> 220 °C"
- Compound: "CCCCNC(=O)NC(=O)C(C)Oc1ccc(Oc2ncc(C(F)(F)F)cc2Cl)cc1 (configuration not stated)"
  melting point: "126 to 127 °C"
- Compound: "OCCCc1cc(-c2ccc(Cl)cc2)n(-c2c(Cl)cncc2Cl)n1"
  melting point: "108 to 110 °C"
- Compound: "CNC(=S)C1(c2cccc(C)n2)CCCCS1 (configuration not stated)"
  melting point: "139 °C"
- Compound: "C=C(CCC)C(=O)c1ccc(OCC(=O)O)c(Cl)c1Cl"
  melting point: "111 to 113 °C"
- Compound: "COC(=O)CCCc1cc2cc(Cl)ccc2n1S(=O)(=O)c1ccccc1"
  melting point: "109 to 112 °C"
- Compound: "COc1ccc(OC)c2c1CC(O)(C(=O)O)CC21SCCS1 (configuration not stated)"
  melting point: "178 to 180 °C"
- Compound: "O=C1c2ccccc2C(=O)N1Cc1nnc2n1-c1ccc(Cl)cc1C(c1ccccc1F)=CC2"
  melting point: "235 to 237 °C"
- Compound: "Oc1ccnc2ccc(Cl)cc12"
  melting point: "274 to 275 °C"
- Compound: "CCn1cc(C(=O)NCc2ccc(Cl)cc2)c(=O)c2cc(CCCCO)sc21"
  melting point: "136 to 139 °C"
- Compound: "CC(=O)NC(Cc1ccc(Cl)c(Cl)c1)C(=O)OCc1cc(C)cc(C)c1 (configuration not stated)"
  melting point: "118 to 119 °C"

----------
A collection of compounds and their measured melting point

- Compound: "CCc1nc2c(N)nc3cc(OCCNC(=O)OC(C)(C)C)ccc3c2n1CC1CCOCC1"
  melting point: "200 to 201 °C"
- Compound: "CCOC(=O)c1c(CN2CCCCC2)nc2cc(OCC)c(OCC)cc2c1-c1ccc(OC)c(OC)c1"
  melting point: "154 to 155 °C"
- Compound: "CCOc1ccc(S(=O)(=O)Cl)cc1OC"
  melting point: "72 to 73 °C"
- Compound: "COC(=O)C1=C(c2ccccc2)NC(C)=C(C(=O)OC(C)C)C1c1cccc([N+](=O)[O-])c1 (stereo not drawn)"
  melting point: "184 to 186 °C"
- Compound: "CNC(=O)c1ccc(N2CCN(Cc3cc(Cc4ccccc4)c4c(c3)NC(=O)C(C)O4)CC2)cc1 (stereo not drawn)"
  melting point: "227 to 231 °C"
- Compound: "O=C(CCCCCCCCCCCCC(=O)ON1C(=O)CCC1=O)OCc1ccccc1"
  melting point: "61.5 to 62.5 °C"
- Compound: "CCOC(=O)c1cc(-n2c(=O)c3c(n(C)c2=O)CCCC3)ccc1Cl"
  melting point: "108 to 112 °C"
- Compound: "COc1cc(OC)c2cc(-c3ccc(OC)nc3OC)oc2c1"
  melting point: "155 to 156 °C"
- Compound: "Oc1c(I)cccc1-c1c(Cl)cccc1Cl"
  melting point: "51 to 53 °C"
- Compound: "CCc1sc(N2C(=O)c3ccccc3C2=O)c(C(=O)c2ccc(Cl)cc2)c1C"
  melting point: "115 to 117 °C"
- Compound: "Cc1nc(-n2ccccc2=O)sc1C(=O)NCc1ccc(F)cc1"
  melting point: "170 to 172 °C"
- Compound: "CC1(C)Oc2ccccc2C(c2ccc[nH]c2=O)C1O (stereo not drawn)"
  melting point: "244 to 246 °C"
- Compound: "CC(C)(C)C(=O)c1c[nH]c2ncc(-c3cccc(N)c3)nc12"
  melting point: "239 to 241 °C"
- Compound: "Cn1ncc(C(=O)N2CCOCC2)c1C(=O)Nc1ccc2nc(-c3ccccc3)nn2c1"
  melting point: "183 to 185 °C"
- Compound: "NC1=NS(=O)N=C1NCCCN(Cc1ccccn1)c1ccccn1 (stereo not drawn)"
  melting point: "192 to 193 °C"
- Compound: "O=C1N(C/C=C/c2ccccc2[N+](=O)[O-])CCN1c1ccncc1"
  melting point: "205 to 206 °C"
- Compound: "CCCc1c(OCCCOc2cccc(NC(=O)C(=O)O)c2C)ccc(C(C)=O)c1O"
  melting point: "146 to 148 °C"
- Compound: "COC(C)c1cccc(NC(=O)NCC(=O)N(CC(=O)N(C)c2ccccc2)c2ccccc2)c1 (racemic)"
  melting point: "194 °C"
- Compound: "O=C(O)COc1ccc(SCc2cc(-c3ccc(Cl)cc3)on2)c2c1CCCO2"
  melting point: "131 to 133 °C"
- Compound: "CONS(=O)(=O)c1cc(Cl)ccc1Cl"
  melting point: "127 to 128 °C"
- Compound: "CCOc1ccc(C2CC(C(C)(C)C)=NN2c2ccc(C(=O)O)cc2)cc1 (stereo not drawn)"
  melting point: "160 °C"
- Compound: "Cc1cc2c(nc1N)C(=O)N(C(C)C1CC1)C2=O (stereo not drawn)"
  melting point: "219 to 220 °C"
- Compound: "CCN(CC)CCNC(=O)c1cc(Cl)c(N)cc1OCCOC(C)=O"
  melting point: "101 to 102 °C"
- Compound: "COc1ccc(OCc2ccccn2)cc1/C=C/c1cc(/C=C/c2ccc3[nH]ccc3c2)n[nH]1"
  melting point: "116 to 122 °C"
- Compound: "Cc1ccc(S(=O)(=O)n2ccc3c(OCC4CO4)cccc32)cc1 (stereo not drawn)"
  melting point: "109 to 112 °C"
- Compound: "COc1nc2ccc(Br)cc2cc1Cc1ccccc1"
  melting point: "83 to 85 °C"
- Compound: "CCc1cccc(CC)c1NC(=O)CN"
  melting point: "70 to 71 °C"
- Compound: "N#CNC(=Nc1ccncc1)NCCOc1ccc(Cl)cc1"
  melting point: "174 to 177 °C"
- Compound: "O=[N+]([O-])c1cc(C(F)(F)F)cc2c(Cl)ccnc12"
  melting point: "100 to 107 °C"
- Compound: "COCCOC(=O)Nc1cccc(C)c1COc1cccn2c(C=O)c(C)nc12"
  melting point: "119 to 120 °C"
- Compound: "CN1C(=O)C(NC(=O)c2cc3cc(O)ccc3[nH]2)N=C(c2ccccc2)c2ccccc21 (stereo not drawn)"
  melting point: "120 to 130 °C"
- Compound: "CCOC(=O)c1cn(-c2ccc(F)cc2F)c2c(F)c(F)c(F)c(F)c2c1=O"
  melting point: "160 to 162 °C"
- Compound: "CSc1ccc(CC(NC(=O)OCc2ccccc2)C(O)C#N)cc1 (stereo not drawn)"
  melting point: "123 to 125 °C"
- Compound: "COc1ccc(C(=O)N[C@H]2CCN(C)C[C@H]2c2ccc(OC)c(OC)c2)cc1 (relative stereo)"
  melting point: "223 to 226 °C"
- Compound: "O=C(O)COc1ccc(C(=O)c2cccc(F)c2)c(Cl)c1Cl"
  melting point: "166 to 168 °C"
- Compound: "Cc1cc(C2=NN(C(=O)N[C@H](C)c3ccccc3)[C@H](C)Cc3cc4c(cc32)OCO4)ccc1[N+](=O)[O-]"
  melting point: "202 to 205 °C"
- Compound: "COc1cc(Nc2c(C#N)cnc3cc(-c4cccc(CN5CCOCC5)c4)ccc23)c(Cl)cc1Cl"
  melting point: "88 to 91 °C"
- Compound: "CCOC(=O)CNC(=O)[C@H](Cc1ccc(O)cc1)NC(=O)[C@H](CO)NC(=O)[C@H](Cc1c[nH]c2ccccc12)NC(=O)[C@H](Cc1c[nH]cn1)NC(=O)[C@@H]1CCC(=O)N1"
  melting point: "218 to 220 °C"
